system: Escherichia coli ARLG 2829; assay: MIC test of compounds in combination with antibiotics, Escherichia coli ARLG 2829; details: Biapenem + compound (8 μg/mL)
List of MIC of biapenem in combination with compound, Escherichia coli ARLG-2829 NDM-5, OXA-1 values.
Quick reminder: number only, in mg/L, skip the unit.

{"columns": ["compound", "measured target", "result units", "reported value"],
 "data": [
  ["O=C(O)c1c(SCCN2CCOCC2)ccc2c1OB(O)C1CC21 (single isomer, unassigned) [Compound 15-b]", "Escherichia coli ARLG 2829", "mg/L", 0.25]
]}

Consider now this further compound.
## Input Param item = CC(Sc1ccc2c(c1C(=O)O)OB(O)C1CC21)C1CC1 (single isomer, unassigned) [Compound 16-b] ; retrieve measured MIC of biapenem in combination with compound, Escherichia coli ARLG-2829 NDM-5, OXA-1.
## Output 0.5
